- Experimental Target: T1, FR3exFc (human)
- T1 construct: also called FGFR3/Fc; FR3/Fc
- T1 sequence (chain, as listed by the source limits assumed): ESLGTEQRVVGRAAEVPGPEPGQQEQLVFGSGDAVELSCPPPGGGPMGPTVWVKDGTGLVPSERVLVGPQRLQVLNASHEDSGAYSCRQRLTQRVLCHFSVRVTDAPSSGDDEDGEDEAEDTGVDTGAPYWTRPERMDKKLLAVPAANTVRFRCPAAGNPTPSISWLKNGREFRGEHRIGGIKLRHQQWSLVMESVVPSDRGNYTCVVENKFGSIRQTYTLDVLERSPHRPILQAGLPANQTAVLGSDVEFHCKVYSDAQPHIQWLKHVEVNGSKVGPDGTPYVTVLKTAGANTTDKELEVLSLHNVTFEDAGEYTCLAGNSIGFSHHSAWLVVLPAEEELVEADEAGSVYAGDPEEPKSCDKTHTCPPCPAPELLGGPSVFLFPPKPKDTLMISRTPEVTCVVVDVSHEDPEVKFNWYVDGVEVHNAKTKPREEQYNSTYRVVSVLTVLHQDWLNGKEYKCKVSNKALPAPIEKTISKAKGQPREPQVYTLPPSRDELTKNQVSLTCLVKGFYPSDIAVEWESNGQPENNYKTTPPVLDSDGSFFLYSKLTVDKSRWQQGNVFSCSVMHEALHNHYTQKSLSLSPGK
- Experiment Description: BIACORE, FGFR3 captured on an anti-Fc chip
- Procedure: The affinity measurements were performed by BIACORE® analysis according to the standard procedure recommended by the supplier (Pharmacia). The anti-Fc antibody was coupled via the EDC/NHS chemistry to the chip and subsequently FGFR3 was captured. The Fabs of the invention were then bound to this surface.
Measurement Label: Kd (nM)
// return numeric value only (unit: nM, not printed)

For MSPRO55 (Fab, V domains shown) VH: QVQLVQSGAEVKKPGASVKVSCKASGYTFTSYYMHWVRQAPGQGLEWMGWINPNSGGTNYAQKFQGRVTMTRDTSISTAYMELSSLRSEDTAVYYCARSMNSTMYWYLRRVLFDHWGQGTLVTVSS VL: DIALTQPASVSGSPGQSITISCTGTSSDVGGYNYVSWYQQHPGKAPKLMIYDVSNRPSGVSNRFSGSKSGNTASLTISGLQAEDEADYYCQSYDMYNYIVFGGGTKLTVLG the binder record lists Kd as 2.9

For MSPRO59 (Fab, V domains shown, HuCAL Fab, framework VH6_L3) VH: QVQLQQSGPGLVKPSQTLSLTCAISGDSVSSNSAAWNWIRQSPGRGLEWLGRTYYRSKWYNDYAVSVKSRITINPDTSKNQFSLQLNSVTPEDTAVYYCARSYYPDFDYWGQGTLVTVSS VL: DIELTQPPSVSVAPGQTARISCSGDALGDKYASWYQQKPGQAPVLVIYDDSDRPSGIPERFSGSNSGNTATLTISGTQAEDEADYYCQSYDGPDLWVFGGGTKLTVLG the binder record lists Kd as 1.5

For MSPRO12 (Fab, V domains shown, HuCAL Fab, framework VH2_L3) VH: QVQLKESGPALVKPTQTLTLTCTFSGFSLSTSGVGVGWIRQPPGKALEWLALIDWDDDKYYSTSLKTRLTISKDTSKNQVVLTMTNMDPVDTATYYCARYHSWYEMGYYGSTVGYMFDYWGQGTLVTVSS VL: DIELTQPPSVSVAPGQTARISCSGDALGDKYASWYQQKPGQAPVLVIYDDSDRPSGIPERFSGSNSGNTATLTISGTQAEDEADYYCQSYDFDFAVFGGGTKLTVLG the binder record lists Kd as 14
